Values compiled from ChEMBL document CHEMBL2218924.

target: Serine/threonine-protein kinase ULK3 (Homo sapiens); conditions: at 1 µM
readout-name: residual activity (%)
Numbers only, in %.

Examples with their reported residual activity follow.
Given item `Cc1cccc(-c2[nH]c(C(C)(C)C)nc2-c2ccc3c(c2)OCO3)n1` , the value recorded as its residual activity is 104

In plain terms, `CO[C@H]1[C@@H](OC)C[C@H](C)[C@@H](OC)C2=CC(=O)C=C(NC(=O)/C(C)=C/C=C/[C@H](OC)[C@@H](OC(N)=O)/C(C)=C/[C@@H]1C)C2=O` has a documented residual activity of 88

Entry `O=Nc1c(-c2c(O)[nH]c3ccccc23)[nH]c2ccccc12` ; residual activity = 55

For `C[C@@H](N)[C@H]1CC[C@H](C(=O)Nc2ccncc2)CC1` the molecule record lists residual activity as 95

Each molecule below has a reported value. Please supply its residual activity.
1. Cc1ccc(S(=O)(=O)/C=C/C#N)cc1
2. COc1ccc(S(=O)(=O)N(CCO)c2ccccc2CN(C)C/C=C/c2ccc(Cl)cc2)cc1
3. Cc1cc2ncc(-c3ccccc3)nc2cc1C
4. CO[C@@H]1[C@H](N(C)C(=O)c2ccccc2)C[C@H]2O[C@]1(C)n1c3ccccc3c3c4c(c5c6ccccc6n2c5c31)C(=O)NC4
5. CCC(=O)Nc1ccc2ncnc(Nc3cccc(Br)c3)c2c1
6. Nc1nc(Nc2ccc(S(N)(=O)=O)cc2)nn1C(=S)Nc1c(F)cccc1F
7. Oc1ccc(Nc2nc(-c3ccc(Cl)cc3)cs2)cc1

1. 97
2. 93
3. 107
4. 17
5. 107
6. 0
7. 96

---

target: AMP-activated protein kinase, AMPK (Homo sapiens) (UniProt P54646+O43741+P54619+Q9UGJ0+Q9Y478+Q13131+Q9UGI9); details: at 10 µM
Under this convention, YES denotes residual activity strictly below 80% and NO denotes residual activity at or above 80%.

Hello, is residual activity of the following molecule strictly smaller than 80%? `O=C(Nc1cccc(Nc2nccc(Nc3cccc(C(F)(F)F)c3)n2)c1)C1CC1`
NO

Lab note: residual activity threshold 80%. Does this molecule come in strictly under it? `O=Nc1c(-c2c(O)[nH]c3ccccc23)[nH]c2ccccc12`
YES

In the record for `N#CCCc1ccc2c(c1)-c1[nH]c3ccc([N+](=O)[O-])cc3c1CC(=O)N2` , is residual activity less than 80%?
YES

I'd appreciate it if you could check whether `Oc1ccc(Nc2nc(-c3ccc(Cl)cc3)cs2)cc1` has residual activity smaller than 80%.
NO

Others:
# TODO verify residual activity < 80% strictly for this molecule: `Cc1ccc(S(=O)(=O)/C=C/C#N)cc1`
NO

Lab note: confirm whether the reported residual activity for this molecule is below 80%, equality not counting. molecule: `COc1cc2ncnc(Nc3ccc(NC(=O)c4ccccc4)cc3)c2cc1OC`
NO

Take the molecule `c1ccc2c(-c3ccncc3)c[nH]c2c1` and say whether its residual activity is less than 80%.
NO

API: query returns whether the molecule falls strictly under 80% in residual activity. Query: `Oc1ccc(-c2nc(-c3ccc(F)cc3)c(-c3ccncc3)[nH]2)cc1`
NO

Could you please tell me whether residual activity recorded for `Nc1nc(Nc2ccc(S(N)(=O)=O)cc2)nn1C(=S)Nc1c(F)cccc1F` is less than 80%?
YES

Item `CCC(=O)Nc1ccc2ncnc(Nc3cccc(Br)c3)c2c1` : residual activity beneath 80%, strictly?
NO
